The reported measurements were obtained from ChEMBL document CHEMBL1201862.

# Tested on: Hs-578T
# assay_procedure: NCI tumour cell line growth inhibition, 48 h
The source made the active and inactive calls. Cut-off read from the data, not from the text of the source: active = GI50 up to about 1.1 µM and inactive = higher.
GI50 values by entry

Some solved cases for reference:
FC(F)(F)C(C1=NC(C(F)(F)F)(C(F)(F)F)N=C(N2CCOCC2)O1)C(F)(F)F    32.4 µM (inactive)
O=C(N/N=C(COc1ccccc1)\N=C\c1cccnc1)c1ccncc1    > 100 µM (inactive)
C=C1C(=O)O[C@H]2C1C[C@@H](O)[C@@]1(C)OC1CC[C@@]1(C)O[C@H]21 (some centres undefined)    28.6 µM (inactive)
CCOC(=O)CN1C(=O)NC(C)(c2ccccc2)C1=O (centres undefined)    > 100 µM (inactive)
O=c1c2ccccc2nc(-c2ccccc2)n1O    > 100 µM (inactive)
CCCCCCCCCCCCCC(=O)CBr    5.64 µM (inactive)

Ask: Query GI50 on Hs-578T for C#C[C@]1(O)CC[C@H]2[C@@H]3CCC4=C/C(=N/CCOC(=O)c5cccc6cc7ccccc7nc56)CC[C@@H]4[C@H]3CC[C@@]21C
Reply: 14.3 µM (inactive)

Ask: Query GI50 on Hs-578T for CNC(=O)C1(N)c2ccccc2C=Cc2ccccc21
Reply: > 100 µM (inactive)

Ask: Query GI50 on Hs-578T for C=C1C(=O)O[C@@H]2C[C@@H](C)[C@@H]3[C@@H](OC4OC(COC(C)=O)C(O)C(O)C4O)CC(=O)[C@@]3(C)C[C@H]12 (some centres undefined)
Reply: 25.2 µM (inactive)

* * *

# Test system: SK-OV-3
# assay_procedure: NCI tumour cell line growth inhibition, 48 h
Activity calls are given as the source filed them. Cut-off read from the data, not from the text of the source: active = GI50 up to about 1.1 µM and inactive = higher.
Pick one and only one: 1 = active, 0 = inactive

Worked examples, 8 compounds total:
Cc1ccc(C(=O)C#Cc2cnc(O)nc2O)cc1    0
O=C1NC(=O)C(=Cc2c3ccccc3cc3ccccc23)C(=O)N1    0
C[C@]1(O)O[C@@H]2OCC[C@@H]2C2=C1C(=O)c1ccccc1C2=O    0
N#Cc1c(-c2ccccc2)cn(C(=O)c2ccccc2)c1N    0
C=C(Cl)/C(=C\Cl)CCC(Cl)C(C)C (stereo not drawn)    0
CCc1oc2ccccc2c1C(=O)c1cc(Br)c(O)c(Br)c1    0
CCCCC1=C(C(=O)N2CCOCC2)C2(OCCO2)C1=O    0
C(=N\c1ccc(-c2nc3ccccc3s2)cc1)/c1ccco1    0

Ask: Test call, this compound: COc1ccc(NC(=O)CC(=O)N/N=C(\C)c2cc3ccccc3oc2=O)cc1
Reply: 0

Ask: Test call, this compound: O=C1NC(=O)C(C(=O)C(=O)Nc2cccc(C(F)(F)F)c2)C(=O)N1
Reply: 0

Ask: Test call, this compound: O=C1CC2CCN(C(=O)c3ccccc3)CC2CCN1.O=C1CCC2CC(C(=O)c3ccccc3)CCC2CN1 (stereo not drawn)
Reply: 0

Ask: Test call, this compound: Oc1cc(-c2cccc(OCc3ccccc3)c2)nc2cc3c(cc12)OCO3
Reply: 1

Ask: Test call, this compound: CCCCOC(=O)NC(Nc1ccc(S(=O)(=O)Nc2ncccn2)cc1)(C(F)(F)F)C(F)(F)F
Reply: 0

Ask: Test call, this compound: CN1C(=O)CN=C(c2ccccc2F)c2cc(N=C=S)ccc21
Reply: 0

Ask: Test call, this compound: COC12C(COC(=O)NCCO)C3=C(C(=O)C(C)=C(N)C3=O)N1CC1NC12 (stereo not drawn)
Reply: 0

Ask: Test call, this compound: C/C(=C\CCC1=CC(=O)OC1)CC[C@@H]1[C@H]2C(=O)CC(C)[C@@]3(C)CC[C@]1(C)[C@@]23C (stereo partly drawn)
Reply: 0

Ask: Test call, this compound: CC1(C)CCC(=O)NC1CC(=O)CC1NC(=O)CCC1(C)C (stereo not drawn)
Reply: 0
